meta.source: patent US20230357447A1

- target-or-system: Anti-CD28 scFv (VH-linker 1-VL) (biotinylated for capture on neutravidin plates)
- Sequence (scFv, as listed by the source): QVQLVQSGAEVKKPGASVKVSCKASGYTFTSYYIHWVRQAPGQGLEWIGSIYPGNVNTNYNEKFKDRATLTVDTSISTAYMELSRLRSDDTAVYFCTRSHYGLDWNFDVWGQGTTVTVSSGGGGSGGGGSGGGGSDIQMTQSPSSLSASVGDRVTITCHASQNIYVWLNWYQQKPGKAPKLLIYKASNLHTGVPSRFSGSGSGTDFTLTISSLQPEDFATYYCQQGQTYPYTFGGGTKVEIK
- protocol-notes: phage ELISA, scFv captured on plate;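 note: crude clonal phage supernatants added to wells preincubated with soluble CD28 or with blocking buffer only, bound phage read out by HRP-linked anti-M13 antibody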
Response key: Criterion met means Phage binding ELISA CD28 scFv signal >= 2; Criterion not met means Phage binding ELISA CD28 scFv signal < 2.

[
  {
    "binder": "MHWCPEYLWNECFA [Phage-148]",
    "category": "Criterion not met"
  },
  {
    "binder": "MDWCPTYMWSECFN [Phage-214]",
    "category": "Criterion not met"
  },
  {
    "binder": "MDWCPKHMWFMCFN [Phage-195]",
    "category": "Criterion met"
  },
  {
    "binder": "IDWCPQDMWFYCFN [Phage-209]",
    "category": "Criterion not met"
  },
  {
    "binder": "MDWCPPYLWYECFA [Phage-172]",
    "category": "Criterion not met"
  },
  {
    "binder": "MDWCPRHLWSECFY [Phage-146]",
    "category": "Criterion not met"
  },
  {
    "binder": "MDWCPSDLWHECFH [Phage-176]",
    "category": "Criterion not met"
  },
  {
    "binder": "MDWCPRSLWSYCFH [Phage-157]",
    "category": "Criterion not met"
  },
  {
    "binder": "MDWCPIHLWNECFA [Phage-123]",
    "category": "Criterion met"
  },
  {
    "binder": "MNWCPSDLWHLCFN [Phage-170]",
    "category": "Criterion not met"
  },
  {
    "binder": "MDWCPRYLWHMCYS [Phage-119]",
    "category": "Criterion met"
  },
  {
    "binder": "MDWCPRSLWNVCFF [Phage-141]",
    "category": "Criterion met"
  },
  {
    "binder": "LDWCPRDLWHVCFF [Phage-178]",
    "category": "Criterion not met"
  },
  {
    "binder": "MFWCPMDMWDQCFN [Phage-202]",
    "category": "Criterion met"
  },
  {
    "binder": "MHWCPIYLWDECFN [Phage-136]",
    "category": "Criterion met"
  },
  {
    "binder": "MDWCPRDMWFECFA [Phage-210]",
    "category": "Criterion not met"
  }
]
